Target: UniProt P00519
Sequence (P00519 whole entry): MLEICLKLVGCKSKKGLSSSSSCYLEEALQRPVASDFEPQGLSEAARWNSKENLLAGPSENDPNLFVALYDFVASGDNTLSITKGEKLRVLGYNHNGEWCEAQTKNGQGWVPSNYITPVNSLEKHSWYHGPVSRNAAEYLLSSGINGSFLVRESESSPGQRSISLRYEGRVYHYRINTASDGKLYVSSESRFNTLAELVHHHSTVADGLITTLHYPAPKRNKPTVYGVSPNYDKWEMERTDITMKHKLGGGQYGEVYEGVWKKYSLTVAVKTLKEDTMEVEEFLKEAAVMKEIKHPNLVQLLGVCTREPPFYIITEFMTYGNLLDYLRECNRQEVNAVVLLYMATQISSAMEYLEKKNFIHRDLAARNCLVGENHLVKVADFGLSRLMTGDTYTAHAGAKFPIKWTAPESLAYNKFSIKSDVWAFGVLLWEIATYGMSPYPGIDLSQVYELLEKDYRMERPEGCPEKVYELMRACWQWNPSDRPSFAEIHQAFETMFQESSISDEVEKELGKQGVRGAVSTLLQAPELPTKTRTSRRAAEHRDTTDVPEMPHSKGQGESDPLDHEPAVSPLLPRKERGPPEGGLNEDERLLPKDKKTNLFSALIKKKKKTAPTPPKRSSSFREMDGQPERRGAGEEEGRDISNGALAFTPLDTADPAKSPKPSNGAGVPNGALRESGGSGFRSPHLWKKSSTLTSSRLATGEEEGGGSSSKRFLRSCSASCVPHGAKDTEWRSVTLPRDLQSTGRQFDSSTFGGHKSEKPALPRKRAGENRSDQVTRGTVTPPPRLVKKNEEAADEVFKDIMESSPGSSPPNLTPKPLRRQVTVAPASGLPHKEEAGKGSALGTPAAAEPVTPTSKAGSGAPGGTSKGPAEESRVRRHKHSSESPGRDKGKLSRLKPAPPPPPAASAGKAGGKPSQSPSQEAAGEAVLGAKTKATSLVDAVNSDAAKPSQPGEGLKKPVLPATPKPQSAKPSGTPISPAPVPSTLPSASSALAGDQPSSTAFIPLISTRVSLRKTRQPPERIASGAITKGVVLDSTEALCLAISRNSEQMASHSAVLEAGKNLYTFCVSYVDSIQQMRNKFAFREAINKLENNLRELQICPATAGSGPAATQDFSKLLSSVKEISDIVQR
Assay: Inhibition of human recombinant N-terminal His-tagged ABL (27 residues) expressed in baculovirus infected sf9 cells using KKGEAIYAAPFA-NH2 as substrate at 100 uM incubated for 10 mins by scintillation counting method relative to control
quantity-measured: inhibition (%)

>>> measurement("C/C(=N\\Nc1ccc2ccccc2n1)c1ccccc1O")
6
>>> measurement("COc1ccc(-c2nnc3c(NCCN4CCOCC4)cccn23)cc1OC")
19
>>> measurement("Cc1cc(N/N=C/c2ccc(O)cc2)nc2ccccc12")
24
>>> measurement("COc1ccc(/C=N/Nc2cc(C)c3ccccc3n2)cc1")
43

====

Molecular target: CDK9/cyclin T1 (Homo sapiens) (UniProt O60563+P50750)
Assay: Inhibition of full length human recombinant N-terminal GST-His6-tagged CDK9 (M1-F372 residues)/Cyclin T1 (M1-K726 residues) expressed in baculovirus infected sf9 cells using CDKtide as substrate at 100 uM incubated for 10 mins by scintillation counting method relative to control
Some molecules, each annotated with its measured inhibition.
quantity-measured: inhibition (%)

>>> measurement("COc1ccc(-c2nnc3c(NCCN4CCOCC4)cccn23)cc1OC")
24
>>> measurement("C/C(=N\\Nc1ccc2ccccc2n1)c1ccccc1O")
1
>>> measurement("COc1ccc(/C=N/Nc2cc(C)c3ccccc3n2)cc1")
0
>>> measurement("Cc1cc(N/N=C/c2ccc(O)cc2)nc2ccccc12")
0
